Target: mouse ATX (Mus musculus)
Construct: purchased Sino Biological
Assay: Amplex Red Lyso-phospholipase D assay, mouse ATX
Type: biochemical
Details: recombinant mouse ATX 2 nM, LPC 16:0 substrate, Amplex Red; read-out: IC50 mATX
Description: All compounds proposed were assessed for their ATX inhibitory activity in vitro using the Amplex Red assay. The Amplex Red Lyso-phospholipase D assay is a fluorometry-based assay providing a sensitive method for measuring Lyso-phospholipase D (ATX) activity in vitro. In this enzyme-coupled assay, ATX activity is monitored indirectly using 10-acetyl-3,7-dihydrophenoxazine (Amplex Red reagent), a sensitive fluorogenic probe for H2O2. […]
pIC50: −log10 of the molar value.
ATTRIBUTE MEASURED: pIC50

Here is how some molecules turned out for pIC50.
MOLECULE	pIC50
O=C1Nc2ccccc2/C1=C/c1cc2ccccc2n1S(=O)(=O)c1ccccc1 [SCR01013]	4.17
CCOC(=O)c1sc(SCc2ccccc2)c2c1CC(c1ccc(C)cc1)CC2O (stereo not drawn) [KM03601]	4.83
CCOC(=O)C1CCN(C(=O)Cc2c(Sc3ccc(Cl)cc3)[nH]c3ccccc23)CC1 [KM-24]	5.19
Cc1cccc(C)c1NC(=O)CSc1nc2ccccc2c(=O)n1CCc1cccs1 [KM-28]	5.52

1: Cc1[nH]c2ccccc2c1C1=CCN(S(=O)(=O)c2cccc3nsnc23)CC1 [SC-41]
2: COc1cccc(NC(=S)N2CCn3cccc3C2c2ccc(OC)c(OC)c2)c1 (stereo not drawn) [KM-26]
[ask] Between 1 and 2 , which one has the lower reported pIC50 value? To answer, give the label that identifies your chosen option.
[reply] 2

* * *

Target: ATX (Homo sapiens, UniProt Q13822)
Assay: IC50 Eleanna (Table S2, method not described)
Assay type: biochemical
Details: Table S2; read-out: IC50 Eleanna
pIC50: −log10 of the molar value.
ATTRIBUTE MEASURED: pIC50

COMPOUND	pIC50
O=C(Nc1c2c(nn1-c1ccc(F)cc1)C[S+]([O-])C2)c1ccc2ccccc2c1 (centres unmarked)	5.40
COc1cccc(NC(=S)N2CCn3cccc3C2c2ccc(OC)c(OC)c2)c1 (centres unmarked)	6.10
CCc1ccc([C@H](NC(=O)CCN2C(=O)[C@@H](C)Oc3ccccc32)c2cccs2)cc1	5.30

1: CCOC(=O)c1c(CN2CCCCC2)n(-c2ccccc2)c2cc(Br)c(OC)cc12
2: COc1ccccc1NC(=S)N1CCn2cccc2C1c1ccc(OC)c(OC)c1 (centres unmarked)
3: CC1Cc2nc(SCC(=O)NCc3ccc(F)cc3)n(Cc3ccccc3)c(=O)c2S1 (centres unmarked)
4: CCOC(=O)c1sc(SCc2ccccc2)c2c1CC(c1ccc(C)cc1)CC2O (centres unmarked)
5: Cc1[nH]c2ccccc2c1C1=CCN(S(=O)(=O)c2cccc3nsnc23)CC1
[ask] Please produce an ascending ranking of these compounds based on pIC50. Rank them, then answer with their labels in that order.
[reply] 1, 5, 3, 4, 2

P: COc1ccc(NC(=S)N2CCn3cccc3C2c2ccc(OC)c(OC)c2)cc1 (centres unmarked)
Q: COc1ccc(Cn2c(C(=O)O)c(CNC3CCCCC3)c3ccc(C)cc32)cc1
R: O=C1Nc2ccccc2/C1=C/c1cc2ccccc2n1S(=O)(=O)c1ccccc1
S: Cc1cccc(C)c1NC(=O)CSc1nc2ccccc2c(=O)n1CCc1cccs1
[ask] Please produce an ascending ranking of these compounds based on pIC50. Rank them, then answer with their labels in that order.
[reply] P, S, Q, R
(P: 5.35, S: 5.70, Q: 5.92, R: 6.22)

a: COc1ccccc1C(=O)NCc1nc2ccccc2n1Cc1cc(C)ccc1C
b: Cc1ccccc1-n1nc2c(c1NC(=O)c1cccc3ccccc13)C[S+]([O-])C2 (centres unmarked)
[ask] Between a and b , which one has the lower reported pIC50 value? To answer, give the label that identifies your chosen option.
[reply] a

I: Cc1ccc(S(=O)(=O)n2cc(C=C3C(=O)Nc4ccccc43)c3ccccc32)cc1
II: O=C1Cc2cc(C(=O)CSc3nc4ccccc4n3-c3ccccc3)ccc2N1
III: CCOC(=O)C1CCN(C(=O)Cc2c(Sc3ccc(Cl)cc3)[nH]c3ccccc23)CC1
[ask] Please produce an ascending ranking of these compounds based on pIC50. Rank them, then answer with their labels in that order.
[reply] I, II, III
(I: 5.30, II: 6.05, III: 6.30)

A: O=C1c2ccccc2-c2ccc(C(=O)N3CCN(C(=O)c4cccs4)CC3)cc21
B: COc1cc([C@H]2c3cccn3CCN2C(=S)Nc2ccccc2C)cc(OC)c1OC
[ask] Between A and B , which one has the lower reported pIC50 value? To answer, give the label that identifies your chosen option.
[reply] A

The measurements presented in this section are drawn from paper PMC7582705.
